- Test system: HepG2 cells
- test: HepG2 cytotoxicity assay
- measurement_conditions: HepG2 cytotoxicity unified across screens; >25 set to 25.00
- Method: Briefly, HepG2 cells were seeded onto compound-treated 384 well plates at a density of 2,500 cells per well in Minimal Essential Medium (MEM) plus 10% fetal bovine serum and 1% non-essential amino acids solution (NEAA). […] Cell viability was then measured in a fluorescent plate reader and percent inhibition calculated with respect to positive and negative controls.

compound: O=C(O)C(F)(F)F.O=S(=O)(NCCN1CCCC1)c1cccc(-c2ccc(CNCc3ccc(F)cc3)cc2)c1
readout_unit: µM
Unified cytotox: 7.40
//
compound: Nc1c2ccccc2nc2ccc(-c3ccccc3)cc12
readout_unit: µM
Unified cytotox: 3.30
//
compound: COc1ccc2nc3cc(Cl)ccc3c(NCCCCN3CCNCC3)c2c1.Cl
readout_unit: µM
Unified cytotox: 5.00
//
compound: COc1cc(NCC(C)CNCc2cn(Cc3ccccc3)c3ccccc23)nc2ccccc12 (stereo not drawn)
readout_unit: µM
Unified cytotox: 5.00
//
compound: CCN(CC)CCOc1ccc(C(O)(C#CC(O)(c2ccc(C)cc2)c2ccc(OCCN(CC)CC)cc2)c2ccc(C)cc2)cc1 (stereo not drawn)
readout_unit: µM
Unified cytotox: 1.62
//
compound: Cc1cccc2nc(-c3ccc(-c4ccc(CN5CCC(CCN6CCCCC6)CC5)cc4)cc3)[nH]c12.O=C(O)C(F)(F)F
readout_unit: µM
Unified cytotox: 3.70
//
compound: CC(C)CNCc1ccc(-c2ccc(CN(CCCN3CCN(C)CC3)C(=O)CCC3CCCC3)cc2)cc1.O=C(O)C(F)(F)F
readout_unit: µM
Unified cytotox: 5.39
//
compound: CCN(CC)Cc1cc(Nc2c3ccc(Cl)cc3nc3cccc(OC)c23)ccc1O.Cl
readout_unit: µM
Unified cytotox: 25.00
//
compound: COc1cccc(Nc2c(C(N)=O)cnc3ccc(-c4ccc([S+](C)[O-])cc4)cc23)c1.O=C(O)C(F)(F)F (stereo not drawn)
readout_unit: µM
Unified cytotox: 25.00
//
compound: O=C(NCCc1ccccc1)N(Cc1cccc(-c2ccc(CNC3CCCC3)cc2)c1)C1CCN(Cc2ccccc2)CC1.O=C(O)C(F)(F)F
readout_unit: µM
Unified cytotox: 7.42
//
compound: CN(C)CCN(Cc1ccccc1-c1ccc(CNCCc2ccccc2)cc1)C(=O)NC1CCCCC1.O=C(O)C(F)(F)F
readout_unit: µM
Unified cytotox: 6.40
//
compound: Br.CCCCC(NCC)c1ccc(OCCOc2ccc(C(CCCC)NCC)cc2)cc1 (stereo not drawn)
readout_unit: µM
Unified cytotox: 6.10
//
compound: Cl.O=C(/C=C/c1ccc(Cl)c(Cl)c1)N1CCC(CCN2CCC(c3c[nH]c4cnccc34)CC2)CC1
readout_unit: µM
Unified cytotox: 7.21
//
compound: CC(C)CNCc1ccc(-c2ccc(CN(CCCN3CCN(C)CC3)C(=O)/C=C/c3ccccc3)cc2)cc1.O=C(O)C(F)(F)F
readout_unit: µM
Unified cytotox: 6.99
//
compound: CCN(CC)CCOc1ccc(C(O)(C#CC(O)(c2ccccc2)c2ccc(OCCN(CC)CC)cc2)c2ccccc2)cc1 (stereo not drawn)
readout_unit: µM
Unified cytotox: 3.67

// data source = paper PMC6753678
